Form: system (Replicase polyprotein 1ab (Severe acute respiratory syndrome-related coronavirus)), quantity (IC50), values below.
Reply numerically in µM, unit not repeated.

Req: What IC50 appears in the records for this compound with Replicase polyprotein 1ab (Severe acute respiratory syndrome-related coronavirus)? CC(C)C[C@H](NC(=O)OC1CCN(S(C)(=O)=O)CC1)C(=O)N[C@H](C=O)C[C@@H]1CCNC1=O
Resp: 28.8

Req: What IC50 appears in the records for this compound with Replicase polyprotein 1ab (Severe acute respiratory syndrome-related coronavirus)? CCOC(=O)N1CCC(OC(=O)N[C@@H](CC(C)C)C(=O)N[C@@H](C[C@@H]2CCNC2=O)C(O)S(=O)(=O)O)CC1 (some centres undefined)
Resp: 8.8

Req: What IC50 appears in the records for this compound with Replicase polyprotein 1ab (Severe acute respiratory syndrome-related coronavirus)? CC(C)C[C@H](NC(=O)OC1CCN(C(=O)OC(C)(C)C)CC1)C(=O)N[C@H](C=O)C[C@@H]1CCNC1=O
Resp: 2.1

Req: What IC50 appears in the records for this compound with Replicase polyprotein 1ab (Severe acute respiratory syndrome-related coronavirus)? CCC1(OC(=O)N[C@@H](CC(C)C)C(=O)N[C@@H](C[C@@H]2CCNC2=O)C(O)S(=O)(=O)O)CCN(C(=O)OC(C)(C)C)CC1 (some centres undefined)
Resp: 4.1

Hey, just so you know, these numbers are from ChEMBL document CHEMBL4196085.
